- measured_on: 3TD of SETDB1, W358A mutant, as used in ITC and crystals (UniProt Q15047 190-410, W358A)
- protocol_description: ITC
pKd: −log10 of the molar value. Where no end group is shown, it is not given here.
readout: pKd

[[record]]
binder = "KQTARK(Me3)STGGK(Ac)APRKQ [H3K9me3/K14ac peptide in solution (ITC; crystals)]"
experimental_result = 4.25

[[record]]
binder = "KQTARK(Me2)STGGK(Ac)APRKQ [H3K9me2/K14ac peptide in solution (ITC; crystal with W358A), limits not stated]"
experimental_result = 3.76

